Recorded apparent KD of K4 kissing-loop reporter for the following sequences
# Test system: K4 kissing-loop RNA reporter
# assay details: apparent KD of K4 kissing-loop reporter; higher = weaker reporter binding
# recorded conditions: Eterna round: R107; input ligand: theophylline 20 uM
Respond with the bare value in nM.

UGAUAGGACAGAAGGAGCGGGAGUGAUGUUCCCAAGGAUUGGUCUAGCAAAGCUGGACCCUCCCAGGUAGGUCGCUGUCCUAUCU [ArgBX 5 #SwitchBubble #StaticStem]; 182

Annotate the sequence AGACCCUGGUAGGAUACCAGCGGCAUGCAGUGCGAGAGAGCGUAGUGAUGUUACGAGACCCGCCCUUGGCAGCCUGGGAAUGUGU [theeternabot_exclusion_KL_Theo_B_50] with its measured apparent KD of K4 kissing-loop reporter. 75.5

Annotate the sequence CAUACGCAUGGAGGAUAUGAGAUUUCUCAUAUUAUUUAUUAUUCUCAGUGAUGUUGGGAUUUAAACUCAGAAGGCCAUGUGUAUG [Ex FMN B 8] with its measured apparent KD of K4 kissing-loop reporter. 244

Annotate the sequence UGUACCGAGUCAGGAUAUAGCGUCGAAAGACGAAUCCUAGUGAUGUUAGGGAUCUGCGAAAGCAGUCUAGAAGGGACUUGGUACU [FmnBS 26 A19+U68] with its measured apparent KD of K4 kissing-loop reporter. 293

Annotate the sequence UCUGCAAAGUCGGCCGCCACUCCGGGCCCUAUAAAUGGGCGCAGUGAUGUUGCGGCUAGGCCUCUGAGGACCGGGACUUUGUAGA [Atlesoqu] with its measured apparent KD of K4 kissing-loop reporter. 132

Annotate the sequence CGAGUGAUGUUCGAAGAGUUGUUAAGCGAUACCAGCCAGGAAACUGGCCCUUGGCAGCGUAAUAAAUAAAUAAAUAAAUGAUCAC [Theophylline A Exclusion; Euphoria Solution] with its measured apparent KD of K4 kissing-loop reporter. 430

###

Recorded apparent KD of K4 kissing-loop reporter for the following sequences
# Tested on: K4 kissing-loop RNA reporter
# assay details: apparent KD of K4 kissing-loop reporter; higher = weaker reporter binding
# recorded conditions: Eterna round: R107; input ligand: arginine 13.2 mM
Respond with the bare value in nM.

UGGAGUUGACGAAAAGUCAACUCCAGAGAAGGAGCGGACGAAAGUCCAGGUAGGUCGCUCACUACCAGUGAUGUUGGUACUUGAA; 335

Annotate the sequence CCAUUCUUUUACGAUACCAGUCUAAUAUAUUUAAUCAAAACCCUCGCCGAGUGAUGUUCGGACCCUUGGCAGCGUCUGCGAGAGG [ettyxtkmullin] with its measured apparent KD of K4 kissing-loop reporter. 472

Annotate the sequence AUCAUUAGUUCGGCCGCCACUCCAGUGAUGUUGGAGGGACGCAUAAUAUGCGCGCGGCUAACUAGGAGGACCGGGAACUUUAGGC [Maonce] with its measured apparent KD of K4 kissing-loop reporter. 115

Annotate the sequence UGCUGGUCAUAGCGUAGUGUGAGCCGCUCACGAGGACCGGUACGGCCGCCACUCGUUACAAAGCAGUGAUGUUGCAAUAGGCUCU [theeternabot_sameState_KL_Trp_A_24] with its measured apparent KD of K4 kissing-loop reporter. 407

Annotate the sequence AUGUUUUAUAAACUCAUGGUUUCGACAGAUACCAGCUUCGAGAGGAGCCCUUGGCAGCUGCAUGAGUGAUGUUCAUGUACGAAGA [KL-XTheoA7] with its measured apparent KD of K4 kissing-loop reporter. 356

Annotate the sequence UGUAUGUGAUUUGAUACCAGACCAGCUGGUGGUAUAUGAGUGAUGUUCAUGUUGGUGUGGGUCCCUUGGCAGCAAAUCGCAUACU [KL-SSTheoB9] with its measured apparent KD of K4 kissing-loop reporter. 161

###

# Tested on: K4 kissing-loop RNA reporter;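 note: bound reporter read as fluorescence of individual clusters on recovered sequencing chips by microscopy, with normalized cluster intensities fitted with a binding model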
# assay details: apparent KD of K4 kissing-loop reporter; higher = weaker reporter binding
# recorded conditions: Eterna round: R107; input ligand: theophylline 20 uM
measured metric: apparent KD of K4 kissing-loop reporter (nM)
Respond with the bare value in nM.

Annotate the sequence GGAUAGGAUAGAGGAUAUGGAAAACACAGAAAUGACUUGUUGUGUUUAUCCAUAGGGAGUGAUGUUCCAGAAGGCUGUCCUAUCG [MatMod 21 - Jieux - Exclusion - FMN B] with its measured apparent KD of K4 kissing-loop reporter. 198

Annotate the sequence UAUACACAGGGAGGAUAUGCCCACACAACAACCGAGUGAUGUUCGGACAAUACACAUAAUACACGGGCAGAAGGCCCACAUCACA [SS FNM B Tesla 1] with its measured apparent KD of K4 kissing-loop reporter. 192

Annotate the sequence CGUCGGUAGUGAUGUUGCCACGACGCUUUUAAGGAUAUAAGCUAAGUUAGAAGGUAAGAGAGUCAGCCCGGUGGCCUUAGAGUAG [theeternabot_exclusion_KL_FMN_A_17] with its measured apparent KD of K4 kissing-loop reporter. 162

###

# System: MS2 coat protein
# assay details: apparent KD of MS2 coat protein; designed switch direction (-1 OFF switch, 1 ON switch): -1; higher = weaker reporter binding
# recorded conditions: input ligand: none
Assign condition met whenever apparent KD of MS2 coat protein does not fall below 0.03 µM; assign condition not met whenever it does.

Use these answered entries as a reference point.
AGUAACUCAAGAGGAUAUCACAUGAGGAUCACCCAUGUAUAGCGCGCUAUGCUAGUCCUCGUAUUUGAGAAGGUUUGAUAAAUG [JL ViennaUCT Quve mod 2] (Eterna round: R96, puzzle: Exclusion NG 2); condition not met
ACGGACUGAGGAUAUGCAUGCAGGAUACCUUAGUCCAAGGGACAUGAGGAUCACCCAUGUAGAAGGCGGAAAUA [Riedzaanor] (Eterna round: R97, puzzle: Exclusion 2); condition not met
UAACAAAACUGAGGAUAUCCAUAGCAAAACGUUUGAUCCUCUACAUGAGGAUCACCCAUGUAGCAGGAGAAGGCAGAAACAAAG [Orraenso] (Eterna round: R96, puzzle: Exclusion NG 2); condition not met

Evaluate AGAUAUCUAGGAUAUGCGUCGCGGAGGACUCCGAAGGGAGGACAUGAGGAUCACCCAUGUAGAAGGAGACAUUG [Eternabot (L2) Solution 38] (Eterna round: R97, puzzle: Exclusion 2) : apparent KD of MS2 coat protein at minimum 0.03 µM? condition met

###

# System: MS2 coat protein
# assay details: apparent KD of MS2 coat protein; designed switch direction (-1 OFF switch, 1 ON switch): 1; higher = weaker reporter binding
# recorded conditions: input ligand: none
Recorded apparent KD of MS2 coat protein for the following sequences

AGCUAUUAAUCAGGAUAUAGUGACAUGAGGAUCACCCAUGUAUUGAUGAUUAAAUGUGGUCACUACUAGAAGGGAUUACUAACA [SameState NG2 #49] (Eterna round: R96, puzzle: Same State NG 2); 67.1 nM

Annotate the sequence UGUACCUUCACAGGAUAUCAUGCGAAAAUUGCGUGAGAAGGGUGAAUACGGUGUUCAUUGUUGCACAUGAGGAUCACCCAUGUA [SameState NG1 #55] (Eterna round: R96, puzzle: Same State NG 1) with its measured apparent KD of MS2 coat protein. 259 nM

Annotate the sequence AGUCCAGCGAAAGCUGGACAAAAGCAUGUACAUGAGGAUCACCCAUGUUCAUGUACAAGCUUUUUGCUCGUCUUAAA [Mat - Sensor - JL mod - D95] (Eterna round: R96, puzzle: Sensor for hsa-mir-208a) with its measured apparent KD of MS2 coat protein. 467 nM

Annotate the sequence GUGGUCAGACAUGAGGAUCACCCAUGUGGAAUAAAUAAGGGUCAGGAUAUCUAAUAUAGGAUAUAAGAGAAGGGAUGGUUGGUG (Eterna round: R96, puzzle: Same State NG 3) with its measured apparent KD of MS2 coat protein. 82.7 nM

Annotate the sequence CGGAAACGUCAAGGAUAUGCUACCGUUUCGGUAGCAGAAGGUGAUCACAUGAGGAUCACCCAUGUAUGCAUGCGUGAGCGUGCU [JL SSNG1 3.56] (Eterna round: R96, puzzle: Same State NG 1) with its measured apparent KD of MS2 coat protein. 177 nM

Annotate the sequence UGGCUCAGACGAGGAUAUAUGUGAUCACAUGAGGAUCACCCAUGUCUCGAGCUUCGGCUCGAGACAUAGAAGGUGUCUGAGCCA [SSNG2/3-C2] (Eterna round: R96, puzzle: Same State NG 2) with its measured apparent KD of MS2 coat protein. 49.5 nM

Annotate the sequence AUAAAACAUGAGGAUCACCCAUGUAGACGGAGAAACGUCACAUAGGAUAUAGUCAGCGGCGUUGACUAGAAGGGUGGUAGAAAA [Qubeedbi] (Eterna round: R96, puzzle: Same State NG 3) with its measured apparent KD of MS2 coat protein. 251 nM

Annotate the sequence GAAGGAUGAGCGUAGGAUAUAGGAGGAGUGACAUGAGGAUCACCCAUGUGGUAGGAGGGAGGGUACUAGAAGGACGAGGAAGAGG [JR_SS2_Sub069] (Eterna round: R96, puzzle: Same State 2) with its measured apparent KD of MS2 coat protein. 84 nM

Annotate the sequence UAAUUAAGUCAAGGAUAUCACGUCGAUUAGACGUGAGAAGGUGACCAAUACAUGAGGAUCACCCAUGUAAUACAUGAAUAAUUA [SSNG1/12-B2] (Eterna round: R96, puzzle: Same State NG 1) with its measured apparent KD of MS2 coat protein. 56.4 nM
